// provenance: patent EP4219453A1

- SYSTEM UNDER TEST: CYP3A4 (Homo sapiens)
- Construct: purchased Promega
- Sequence (P08684 whole entry): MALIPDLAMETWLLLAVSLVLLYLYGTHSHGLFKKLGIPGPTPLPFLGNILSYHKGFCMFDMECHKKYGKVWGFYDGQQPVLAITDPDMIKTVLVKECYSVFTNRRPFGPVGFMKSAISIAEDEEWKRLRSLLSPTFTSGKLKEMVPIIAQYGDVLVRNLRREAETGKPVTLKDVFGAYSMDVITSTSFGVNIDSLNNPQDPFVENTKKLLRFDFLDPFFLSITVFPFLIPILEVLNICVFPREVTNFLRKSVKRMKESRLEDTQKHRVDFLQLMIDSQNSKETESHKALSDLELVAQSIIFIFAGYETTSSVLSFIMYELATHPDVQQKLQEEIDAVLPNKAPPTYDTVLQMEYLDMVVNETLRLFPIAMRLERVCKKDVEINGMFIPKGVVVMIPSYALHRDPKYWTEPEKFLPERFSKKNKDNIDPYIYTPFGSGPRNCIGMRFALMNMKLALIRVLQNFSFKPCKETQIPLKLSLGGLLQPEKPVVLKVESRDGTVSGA
- METHOD SUMMARY: CYP enzyme inhibition test, P450-Glo CYP3A4 Screening System
- Format: in vitro ADME
- EXPERIMENTAL PARAMETERS: Luciferin-IPA 3 µM; 30 min
MEASUREMENT TYPE: IC50

// IC50 lookup, compound = Cc1cccc(-n2nc3c(c2-c2ccn4ncc(C(N)=O)c4c2)CCC3)n1 [Example 6] , result: > 10 µM

* * *

- SYSTEM UNDER TEST: TGFβR1 (Homo sapiens, UniProt P36897)
- Sequence (P36897 34-503): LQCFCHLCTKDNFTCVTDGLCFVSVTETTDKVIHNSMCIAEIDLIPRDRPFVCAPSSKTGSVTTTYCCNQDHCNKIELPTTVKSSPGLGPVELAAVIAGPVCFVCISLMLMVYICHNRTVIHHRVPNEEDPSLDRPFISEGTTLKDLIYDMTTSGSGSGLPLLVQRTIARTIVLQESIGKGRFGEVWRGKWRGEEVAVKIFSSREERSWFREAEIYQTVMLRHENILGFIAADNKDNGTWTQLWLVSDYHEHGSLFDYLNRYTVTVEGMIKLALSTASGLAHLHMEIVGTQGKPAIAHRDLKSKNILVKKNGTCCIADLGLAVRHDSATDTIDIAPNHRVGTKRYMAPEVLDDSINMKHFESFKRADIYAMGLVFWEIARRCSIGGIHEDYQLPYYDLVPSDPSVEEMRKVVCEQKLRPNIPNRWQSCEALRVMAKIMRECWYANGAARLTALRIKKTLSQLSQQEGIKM
- METHOD SUMMARY: In vitro enzymatic activity inhibition test (TGFβR1), ADP-Glo Kinase Detection Kit
- Type: biochemical
- EXPERIMENTAL PARAMETERS: calculated from percent inhibition at 1000 nM, 100 nM, 10 nM
MEASUREMENT TYPE: IC50 (nM)
Please state the figure in nM; there is no need to write the unit.

Some entries whose results are on file:
• Cc1cccc(-n2nc(NC(C)c3ccc(F)cc3)cc2-c2ccn3ncc(C(N)=O)c3c2)n1 (centres unmarked) [Example 10] = 4.82
• Cc1cccc(-n2nc3c(c2-c2ccn4ncc(C(N)=O)c4c2)CCC3)n1 [Example 6] = 2.36
• Cc1cccc(-n2nc(NCc3ccc(F)cc3)cc2-c2ccn3ncc(C(N)=O)c3c2)n1 [Example 11] = 0.5
• CNc1cc(-c2ccn3ncc(C(N)=O)c3c2)n(-c2cccc(C)n2)n1 [Example 8] = 8.27

Okay, next one:
Noted for Cc1cccc(-n2nc3c(c2-c2ccn4nccc4c2)CCC3)n1 [Example 4] : its IC50 reads 12
